System: Mycobacterium tuberculosis
Assay comment: Antimycobacterial activity against Mycobacterium tuberculosis H37Rv
Type: functional, organism-based
// reported MIC for each item listed
Quantity: MIC (µM)

compound=C=C(C)[C@@H]1CC[C@]2(C(=O)OC)CC[C@]3(C)[C@H](CC[C@@H]4[C@@]5(C)CCC(=O)NC(C)(C)[C@@H]5CC[C@]43C)[C@@H]12 operator_symbol=> measured_result=10
compound=C=C(C)[C@@H]1CC[C@]2(COC(=O)/C=C/c3ccccc3)CC[C@]3(C)[C@H](CC[C@@H]4[C@@]5(C)CCCNC(C)(C)[C@@H]5CC[C@]43C)[C@@H]12 operator_symbol== measured_result=10
compound="CC(CO)[C@@H]1CC[C@]2(CO)CC[C@]3(C)[C@H](CC[C@@H]4[C@@]5(C)CCCNC(C)(C)[C@@H]5CC[C@]43C)[C@@H]12 (stereo partly specified)" operator_symbol== measured_result=12.5
compound=CC(=O)[C@@H]1CC[C@]2(CO)CC[C@]3(C)[C@H](CC[C@@H]4[C@@]5(C)CCCNC(C)(C)[C@@H]5CC[C@]43C)[C@@H]12 operator_symbol== measured_result=50
compound=CCc1nc(N)nc(N)c1-c1ccc(Cl)cc1 operator_symbol== measured_result=50
compound=C[C@H]1[C@H](C)CC[C@]2(COC(=O)CCC(=O)O)CC[C@]3(C)C(=CC[C@@H]4[C@@]5(C)CCCNC(C)(C)[C@@H]5CC[C@]43C)[C@@H]12 operator_symbol== measured_result=111

###

System: Mycobacterium tuberculosis
Assay comment: Antimycobacterial activity against Mycobacterium tuberculosis H37Rv
Type: functional, organism-based
MIC reference
Quantity: MIC (µM)

compound_structure_string=NNC(=O)c1ccncc1 study_system="Mycobacterium tuberculosis" operator_symbol== measured_result=0.31
compound_structure_string=C=C(C)[C@@H]1CC[C@]2(CO)CC[C@]3(C)[C@H](CC[C@@H]4[C@@]5(C)CCCN(CCCN)C(C)(C)[C@@H]5CC[C@]43C)[C@@H]12 study_system="Mycobacterium tuberculosis" operator_symbol=> measured_result=10
compound_structure_string=C[C@H]1[C@H](C)CC[C@]2(CO)CC[C@]3(C)C(=CC[C@@H]4[C@@]5(C)CCCNC(C)(C)[C@@H]5CC[C@]43C)[C@@H]12 study_system="Mycobacterium tuberculosis" operator_symbol== measured_result=12.5
compound_structure_string=C=C(C)[C@@H]1CC[C@]2(COC(=O)CCC(=O)O)CC[C@]3(C)[C@H](CC[C@@H]4[C@@]5(C)CCCNC(C)(C)[C@@H]5CC[C@]43C)[C@@H]12 study_system="Mycobacterium tuberculosis" operator_symbol== measured_result=61

###

As shown below, each of these molecules has a reported MIC value.
Test system: Mycobacterium tuberculosis
Assay comment: Antimycobacterial activity against Mycobacterium tuberculosis H37Rv
Assay type: functional, organism-based
Quantity: MIC (µM)

molecule="COC(=O)[C@]12CCC(C)(C)C[C@@H]1C1/C(=N/O)C[C@@H]3[C@@]4(C)CCC(=O)NC(C)(C)[C@@H]4CC[C@@]3(C)[C@]1(C)CC2 (some centres undefined)" study_system="Mycobacterium tuberculosis" measured_result=97
molecule="COC(=O)[C@]12CC[C@@H](C(C)CO)[C@@H]1[C@H]1CC[C@@H]3[C@@]4(C)CCC(=O)NC(C)(C)[C@@H]4CC[C@@]3(C)[C@]1(C)CC2 (some centres undefined)" study_system="Mycobacterium tuberculosis" measured_result=12.5
molecule=COc1ccc(/C=C/C(=O)OC[C@]23CC[C@@H](C)[C@H](C)[C@@H]2C2=CC[C@@H]4[C@@]5(C)CCCNC(C)(C)[C@@H]5CC[C@@]4(C)[C@]2(C)CC3)cc1 study_system="Mycobacterium tuberculosis" measured_result=3.12
molecule=N[C@@H]1CONC1=O study_system="Mycobacterium tuberculosis" measured_result=50
